// reported IC90 per item
Target: CYP1A2 (Homo sapiens, UniProt P05177)
Sequence (P05177 whole entry): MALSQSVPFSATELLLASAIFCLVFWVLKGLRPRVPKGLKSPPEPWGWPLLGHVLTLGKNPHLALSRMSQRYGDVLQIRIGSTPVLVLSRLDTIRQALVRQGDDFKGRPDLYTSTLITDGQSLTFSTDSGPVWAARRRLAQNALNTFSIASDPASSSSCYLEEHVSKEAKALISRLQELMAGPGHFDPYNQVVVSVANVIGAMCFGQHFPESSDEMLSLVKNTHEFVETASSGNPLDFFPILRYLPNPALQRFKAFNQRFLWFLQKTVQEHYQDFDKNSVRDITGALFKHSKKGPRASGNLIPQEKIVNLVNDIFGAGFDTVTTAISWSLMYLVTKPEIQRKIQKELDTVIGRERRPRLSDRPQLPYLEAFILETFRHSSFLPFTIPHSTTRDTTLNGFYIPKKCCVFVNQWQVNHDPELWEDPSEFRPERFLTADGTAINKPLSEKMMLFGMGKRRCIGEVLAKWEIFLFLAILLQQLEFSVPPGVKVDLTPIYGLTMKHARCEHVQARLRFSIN
Assay: Inhibition of CYP1A2
Assay type: ADME

| Compound Structure | Parameter | Experimental Result |
| --- | --- | --- |
| COC(=O)N[C@H](C(=O)N1CCC[C@H]1c1nc(F)c(-c2ccc(-c3ccc(-c4[nH]c([C@@H]5CCCN5C(=O)[C@@H](NC(=O)OC)C(C)C)nc4F)cc3)cc2)[nH]1)C(C)C | IC90 | > 100 µM |

Record summary for "COC(=O)N[C@H](C(=O)N1CCC[C@H]1c1nc(Cl)c(-c2ccc(-c3ccc(-c4[nH]c([C@@H]5CCCN5C(=O)[C@@H](NC(=O)OC)C(C)C)nc4Cl)cc3)cc2)[nH]1)C(C)C" : reported IC90 = > 100 µM

Where do these numbers come from? They come from ChEMBL document CHEMBL2046362.
